Target: T1, human SIRPγ on stably transfected CHO cells (human, UniProt Q9P1W8 29-387)
T1 construct: also called Human SIRPγ CHO
T1 sequence (Q9P1W8 29-387 limits assumed): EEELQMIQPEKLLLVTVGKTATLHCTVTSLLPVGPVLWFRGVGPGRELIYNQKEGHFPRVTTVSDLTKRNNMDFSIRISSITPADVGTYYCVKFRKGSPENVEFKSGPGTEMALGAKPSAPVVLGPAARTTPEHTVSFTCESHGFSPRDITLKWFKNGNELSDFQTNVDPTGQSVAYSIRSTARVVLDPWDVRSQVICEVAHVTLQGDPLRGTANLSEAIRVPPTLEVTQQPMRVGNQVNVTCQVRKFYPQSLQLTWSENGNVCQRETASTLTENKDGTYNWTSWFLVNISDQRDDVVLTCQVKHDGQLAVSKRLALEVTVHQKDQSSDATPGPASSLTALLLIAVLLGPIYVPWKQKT
Assay: flow cytometry, myc-scFv PPE
quantity: MFI fold change over parental CHO (fold)

- binder: "Antibody 16 (scFv, V domains shown, scFv in crude PPE, V5/myc-tagged) VH: QVQLVQSGAEVKKPGASVKVSCKASGYTFTSYYMHWVRQAPGQGLEWMGWINPNSGNAGFAQKFQGRVTMTRDTSTSTVYMELSSLRSEDTAVYYCARGPVYSYGPFDYWGQGTLVTVSS VL: DIQMTQSPSSLSASVGDRVTITCRASQGISTYLAWYQQKPGKAPKLLIYAASTLQSGVPSRFSGSGSGTDFTLTISSLQPEDFATYYCQQSHSAPITFGQGTKVEIK"
  quantity: "MFI fold change over parental CHO"
  measured-number: 33
- binder: "Antibody 46 (scFv, V domains shown, scFv in crude PPE, V5/myc-tagged) VH: QVQLVQSGAEVKKPGASVKVSCKASGYTFSSYAISWVRQAPGQGLEWMGWMDPNSGNTGYAQKFQGRVTMTRDTSTSTVYMELSSLRSEDTAVYYCARESSYYYDSSGYYPGWYFDLWGRGTLVTVSS VL: DIQMTQSPSSLSASVGDRVTITCQASQDISNYLNWYQQKPGKAPKLLIYAASTLQTGVPSRFSGSGSGTDFTLTISSLQPEDFATYYCQQSYSTPWTFGPGTKVDIK"
  quantity: "MFI fold change over parental CHO"
  measured-number: 13.1
- binder: "Antibody 9 (scFv, V domains shown, scFv in crude PPE, V5/myc-tagged) VH: QVQLVQSGAEVKKPGASVKVSCKASGYSFSDYYMHWVRQAPGQGLEWMGWMSPNSGNTGYAQKFQGRVTMTRDTSTSTVYMELSSLRSEDTAVYYCARQREEYGHYYYGMDVWGQGTMVTVSS VL: EIVMTQSPATLSVSPGERATLSCRASQSLGSTYLAWYQQKPGQAPRLLIYGASTRATGIPARFSGSGSGTEFTLTISSLQSEDFAVYYCQQYYSSPPTFGQGTKVEIK"
  quantity: "MFI fold change over parental CHO"
  measured-number: 10.4
- binder: "Antibody 36 (scFv, V domains shown, scFv in crude PPE, V5/myc-tagged) VH: QVQLVQSGAEVKKPGASVKVSCKASGYTFTDNYLHWVRQAPGQGLEWMGIIETSGGSTDYAQKFQGRVTMTRDTSTSTVYMELSSLRSEDTAVYYCARSFGGYSYDDAFDIWGQGTTVTVSS VL: DIQMTQSPSSLSASVGDRVTITCQASQGISNYLNWYQQKPGKAPKLLIYAASSLQSGVPSRFSGSGSGTDFTLTISSLQPEDFATYYCQQSYSSPYTFGQGTKVEIK"
  quantity: "MFI fold change over parental CHO"
  measured-number: 42.4
- binder: "Antibody 47 (scFv, V domains shown, scFv in crude PPE, V5/myc-tagged) VH: QVQLVQSGAEVKKPGASVKVSCKASGYTFTTYGISWVRQAPGQGLEWMGWMDPNSGSTGYAQKFQGRVTMTRDTSTSTVYMELSSLRSEDTAVYYCARGRGNSYYYYYMDVWGKGTTVTVSS VL: DIQMTQSPSSLSASVGDRVTITCRASQRIGSYLNWYQQKPGKAPKLLIYGASNLQSGVPSRFSGSGSGTDFTLTISSLQPEDFATYYCQQANSFPFTFGPGTKVDIK"
  quantity: "MFI fold change over parental CHO"
  measured-number: 17.3

Recorded values, source patent US20240400677A1.
